This collection of values is drawn from the supplement of paper PMC4466140.

Target: CaSla1-D3
Test: SPOT peptide array binding signal intensity (averaged, normalized) (arbitrary units (background-subtracted, floor 0; scale differs between SH3 domains)); higher = stronger binding of the SH3 domain to the peptide
reported property: SPOT peptide array binding signal intensity
Returns: the value as a bare number; no unit string appended.

QHQQRQPKRPKRYSL; 26.2
RPKRRAPPPVPKKPS; 920

Req: Note SPOT peptide array binding signal intensity for the binder shown: "HVRRSILALPLGVLL"
Resp: 25

Req: Note SPOT peptide array binding signal intensity for the binder shown: "PSTMDFPKLPSFQNS"
Resp: 157

Req: Note SPOT peptide array binding signal intensity for the binder shown: "RPVPRRPSQPLNTLS"
Resp: 5

Req: Note SPOT peptide array binding signal intensity for the binder shown: "RTRRRPPPPPIPSTQ"
Resp: 391

Req: Note SPOT peptide array binding signal intensity for the binder shown: "ALRRRLPVTRSKINW"
Resp: 11.5

Req: Note SPOT peptide array binding signal intensity for the binder shown: "IPSRPAPKPPSSASA"
Resp: 46.5

Req: Note SPOT peptide array binding signal intensity for the binder shown: "EVTPKVPERPSRRKT"
Resp: 0.5

Req: Note SPOT peptide array binding signal intensity for the binder shown: "RKRRTHLRLPLIRSN"
Resp: 4.62

Req: Note SPOT peptide array binding signal intensity for the binder shown: "HRRRRVFSIPSLKSI"
Resp: 29.5
